Origin of values: PubChem BioAssay (EPA / NIEHS)

Read-out: Fatty Acid-Binding Protein 1 (FABP1), FABP1 (gene 2168)
Experiment: LTEA_HepaRG_FABP1: Life Technologies and Expression Analysis (LTEA) Assay for Fatty Acid-Binding Protein 1 (FABP1) using HepaRG (AID 2283494)
Conditions: mRNA level, 48 h; actives raise or lower the signal
Calls of active or inactive are those of the source. How the source made its calls: active means hit-call score of the fitted dose curve at least 0.9, where 1 is the maximum; inactive means score below 0.9.
Your response should consist of one outcome taken from active, inactive

What classification did CC(C)(c1cc(Br)c(O)c(Br)c1)c1cc(Br)c(O)c(Br)c1 end up with in this test?
inactive

For O=C(O)Cc1cc(I)c(Oc2ccc(O)c(I)c2)c(I)c1 , what call appears in the results of this test?
active

Short answer needed: outcome of this test for O=C1O[C@H]([C@@H](O)CO)C(O)=C1O ?
inactive

Could you check what this test reported for CN(C)c1ccc(C(=C2C=CC(=[N+](C)C)C=C2)c2ccc(N(C)C)cc2)cc1 ?
active

Hello, I am checking results. What call was entered for Cc1oc2c(NC(=O)c3c(Cl)cccc3Cl)cccc2c1C(C)(C)O ?
active

// return assay outcome for CC[C@@H]1C[C@H](N(Cc2cc(C(F)(F)F)cc(C(F)(F)F)c2)C(C)=O)c2cc(C(F)(F)F)ccc2N1C(=O)OC(C)C
active

What did the test return for c1ccc2ccccc2c1 ?
inactive

Hi, do you know how CCN(Cc1cccc(S(=O)(=O)O)c1)c1ccc(C(=C2C=CC(=[N+](CC)Cc3cccc(S(=O)(=O)O)c3)C=C2)c2ccccc2S(=O)(=O)[O-])cc1 came out in this test?
inactive

Give the logged outcome of this assay for the following compound: O=c1[nH]sc2ccccc12
inactive

Give the logged outcome of this assay for the following compound: Cc1cc(F)ccc1-c1cc(N2CC[C@@H](O)[C@H]2CO)ncc1N(C)C(=O)C(C)(C)c1cc(C(F)(F)F)cc(C(F)(F)F)c1
active

Name the outcome recorded for O=C(O)Cn1c(=O)n(Cc2ccc(Br)cc2F)c(=O)c2ccc(Cl)cc21 in the assay.
inactive

What was the test verdict on O=C(O)c1ccccc1C(=O)OCc1ccccc1 ?
active

I'd appreciate the recorded outcome for Cc1ccc2oc(CN(Cc3ccccc3)C(=O)Nc3c(F)cc(F)cc3F)c(-c3ccc(Cl)cc3)c2c1 from this test.
active

Which outcome did this test record for the compound CCCCCCCCCCCC[N+](C)(C)C ?
active

Lab log entry: CC(C)(C)c1cc(/C=C2\SC(N)=NC2=O)cc(C(C)(C)C)c1O — outcome as called in the assay?
active

Could you check what this test reported for O=C1c2ccccc2C(=O)N1CCc1noc(-c2ccc(CN3CCCCCC3)s2)n1 ?
inactive

Returns: the outcome recorded for OCCO in this assay.
inactive

Dear all, I need the recorded test outcome for CC[C@H](NC(=O)c1cc(F)ccc1NS(=O)(=O)c1cccc2cccnc12)c1ccccc1 , thank you.
active

Identify the outcome logged in this assay for the compound shown: CCCCCCCCOc1ccc(C(=O)c2ccccc2)c(O)c1
inactive

What outcome does the record of this test show for OC12N=C(c3ccccc3)SC1Cc1cc(Cl)ccc12 (configuration not stated) ?
active

Hey, what did the test say about CCO[Si](CCCNC(N)=O)(OCC)OCC ?
inactive

Hi team, can someone confirm the assay call for Cc1cn([C@H]2C[C@H](N=[N+]=[N-])[C@@H](CO)O2)c(=O)[nH]c1=O ?
inactive

Record request — test call for CC(C)(C)c1csc(-c2cc3cc(OCc4ccccc4CC(=O)O)ccc3o2)n1
active

I would be grateful if you could indicate the recorded call for CC1=CC(=O)/C(=C(/C)O)C(=O)O1 .
inactive

Please let me know the test result on file for C[C@]12CC[C@@H]3c4ccc(O)cc4CC[C@H]3[C@@H]1CCC2=O .
active

Recorded call for CCCCCCCCCCCO ?
inactive

# outcome recorded in this test, key = CCN(Cc1cccnc1)C(=O)c1cccc(Cl)c1[C@]1(C)C(=O)N(Cc2ccc(OC)cc2OC)c2ccc(Cl)cc21
active

# fetch the recorded call for COCC(C)OCC(C)OCC(C)O (configuration not stated) here
inactive

Status in this test for Clc1ccccc1C(c1ccccc1)(c1ccccc1)n1ccnc1 ?
active

Hello, I am checking results. What call was entered for Clc1cc(Cl)c2c(c1)N=C1CCCCCN1C2 ?
inactive

Could you kindly confirm the outcome this assay logged for CCCCCCCCOC(=O)c1cc(O)c(O)c(O)c1 ?
inactive

Check the results log: what was the call for O=C(O)c1ccccc1-n1cc(C(=O)O)c(=O)c2cc(Nc3c(F)cc(F)cc3Cl)c(Cl)cc21 ?
inactive
